Reference source: ChEMBL document CHEMBL3259702

Assay: Solubility of the compound in crystalline form in simulated intestinal fluid under fasted condition
Format: physicochemical
Reported Endpoint: solubility (µM)
Expressed in µM, but write only the number.

q: # solubility lookup, item c1cn2cc(-c3ccc4cn[nH]c4c3)nc(Nc3ccc(N4CCOCC4)cc3)c2n1
a: 2
